# credit: PubChem BioAssay AID1918937

System: 521955-158-R2-J5-PDC complex spheroid viability
Experiment: Anticancer human tumor 521955-158-R2-J5-PDC patient-derived pancreatic carcinoma cell line growth inhibition
Details: second compound 3.16 µM; first compound 0.3 µM; stronger effect = lower value
Source text: Multicellular complex tumor spheroid response to LSD1 Inhibitor Iadademstat in combination with a variety of drugs and investigational agents in selected tumor cell lines The current study was undertaken to assess response to LSD1 inhibitors in combination with standard-of-care drugs and investigational agents in solid tumor complex spheroid models as well as in the K-562 leukemia. […] Compounds. […] If the clinical Cmax for an agent had not been determined, the highest concentration tested was 10 microM. […]
observed_property: viability, T/C (%)
Lab book: enter the figure in %, no units written.

Consider the compound shown here: Nc1ncn(C2CC(O)C(CO)S2)c(=O)n1 (centres undefined) + NC1CC1c1ccc(-c2cccc(O)c2)cc1 What is its recorded viability, T/C?
69.9

Need viability, T/C of Nc1ncn(C2CC(O)C(CO)S2)c(=O)n1 (centres undefined) + NC1CCC(NC2CC2c2ccccc2)CC1 , thanks.
52.7

Data request, read-out viability, T/C, for COc1cc(C2c3cc4c(cc3C(OC3OC5COC(C)OC5C(O)C3O)C3COC(=O)C23)OCO4)cc(OC)c1O (centres undefined) + NC1CCC(NC2CC2c2ccccc2)CC1
17.7

Form field: reported viability, T/C of NS(=O)(=O)OCC1CC(n2ccc3c(NC4CCc5ccccc54)ncnc32)CC1O (centres undefined) + NC1CC1c1ccc(-c2cccc(O)c2)cc1
21.3

###

system: 521955-158-R2-J5-PDC complex spheroid viability; assay: Anticancer human tumor 521955-158-R2-J5-PDC cell line growth inhibition; conditions: curve of first compound; second compound 1 µM;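 further: spheroids exposed to agents for seven days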
pIC50: −log10 of the molar value.
// label = fulfilled if pIC50 is not less than 7, otherwise not fulfilled

Given the entry Cn1ncnc1C1c2n[nH]c(=O)c3cc(F)cc(c23)NC1c1ccc(F)cc1 (stereo not given) + NC1CC1c1ccc(-c2cccc(O)c2)cc1 , answer whether its pIC50 meets or surpasses 7.
not fulfilled

Reported pIC50 at or above 7? Nc1ncn(C2CC(O)C(CO)S2)c(=O)n1 (stereo not given) + NC1CCC(NC2CC2c2ccccc2)CC1
not fulfilled

Exam item: decide whether the reported pIC50 for Nc1ncn(C2CC(O)C(CO)S2)c(=O)n1 (stereo not given) + NC1CC1c1ccc(-c2cccc(O)c2)cc1 is at least 7.
not fulfilled

Exam item: decide whether the reported pIC50 for O=C(C=Cn1cnc(-c2cc(C(F)(F)F)cc(C(F)(F)F)c2)n1)NNc1cnccn1 + NC1CC1c1ccc(-c2cccc(O)c2)cc1 is at least 7.
not fulfilled

Has COc1cc(Nc2ncc3c(n2)-c2ccc(Cl)cc2C(c2c(F)cccc2OC)=NC3)ccc1C(=O)O + NC1CC1c1ccc(-c2cccc(O)c2)cc1 a recorded pIC50 greater than or equal to 7?
not fulfilled

Would you say Nc1ncn(C2CC(O)C(CO)O2)c(=O)n1 (stereo not given) + NC1CC1c1ccc(-c2cccc(O)c2)cc1 shows pIC50 at minimum 7?
not fulfilled

Confirm if pIC50 reported for the molecule NS(=O)(=O)OCC1CC(n2ccc3c(NC4CCc5ccccc54)ncnc32)CC1O (stereo not given) + NC1CC1c1ccc(-c2cccc(O)c2)cc1 is 7 or above.
fulfilled

Tell me whether pIC50 is at least 7 here: CC1(C)CCC(CN2CCN(c3ccc(C(=O)NS(=O)(=O)c4ccc(NCC5CCOCC5)c([N+](=O)[O-])c4)c(Oc4cnc5[nH]ccc5c4)c3)CC2)=C(c2ccc(Cl)cc2)C1 + NC1CCC(NC2CC2c2ccccc2)CC1
not fulfilled

Is pIC50 for CCN(c1cc(-c2ccc(CN3CCOCC3)cc2)cc(C(=O)NCc2c(C)cc(C)[nH]c2=O)c1C)C1CCOCC1 + NC1CCC(NC2CC2c2ccccc2)CC1 at or above 7?
not fulfilled

Exam item: decide whether the reported pIC50 for O=C(C=Cc1cccc(S(=O)(=O)Nc2ccccc2)c1)NO + NC1CCC(NC2CC2c2ccccc2)CC1 is at least 7.
not fulfilled

Entry NS(=O)(=O)OCC1CC(n2ccc3c(NC4CCc5ccccc54)ncnc32)CC1O (stereo not given) + NC1CCC(NC2CC2c2ccccc2)CC1 : is its pIC50 no less than 7?
fulfilled

Determine whether this molecule has pIC50 no lower than 7: O=C(C=Cc1cccc(S(=O)(=O)Nc2ccccc2)c1)NO + NC1CC1c1ccc(-c2cccc(O)c2)cc1
not fulfilled

Determine whether this molecule has pIC50 no lower than 7: COc1ccc([C@@H](O)c2cc(-c3ncnc4cc(N5CCOCC5)ccc34)c(F)cc2Cl)nn1 + NC1CCC(NC2CC2c2ccccc2)CC1
not fulfilled

Does pIC50 meet or surpass 7 for CC(C)CC(NC(=O)CNC(=O)c1cc(Cl)ccc1Cl)B1OC(=O)CC(CC(=O)O)(C(=O)O)O1 (stereo not given) + NC1CC1c1ccc(-c2cccc(O)c2)cc1 ?
fulfilled
